Let's look at some molecules and their measured melting point.

In [3]: df
Out[3]:
                                   molecule  reported_result
0      Cc1ccc(-c2nc3sc4ccccc4n3c2CC(N)=O)s1    243 to 245 °C
1  CC(C)(OCCCCCCCCc1csc(-c2ccccc2)n1)C(=O)O      64 to 70 °C
2           Cc1ccc(S(=O)(=O)NC[C@H](C)N)cc1      82 to 86 °C
3  CCC(=O)Oc1cc(OC)cc(OC)c1C(=O)C=Cc1ccc2c(c1)OCO2           134 °C

What melting point value was documented for this molecule, CCCCCOc1cc2c(cc1/C=C/C=C/C(C)=C/C(=O)O)C(C)(C)CCC2(C)C ? 162 to 163 °C

What melting point value was documented for this molecule, N#Cc1ccc(N2C(=O)NC3(CCCCC3)C2=O)cc1C(F)(F)F ? 187 °C

What melting point value was documented for this molecule, O=C1c2c(Br)ccc(Br)c2C(=O)N1CC(F)(F)C(F)(F)C(F)(F)F ? 165 °C

What melting point value was documented for this molecule, Cn1nnnc1-c1cn(C)c2cc(C(F)(F)F)ccc2c1=O ? 220 to 221 °C

What melting point value was documented for this molecule, COc1cc(/C=C/C=C/C(=O)NCCN2CCC(c3c[nH]c4ccccc34)CC2)ccc1OC(C)=O ? 101 to 105 °C

What melting point value was documented for this molecule, Nc1ncc2ncn([C@@H]3C[C@H](O)[C@@H](O)[C@H]3O)c2n1 (racemic) ? 153 to 155 °C

What melting point value was documented for this molecule, CCC(CC)N1C(=O)CCc2c(C)nc(Nc3ccc(C(C)C)cc3Br)nc21 ? 124 to 126 °C

What melting point value was documented for this molecule, N#CC=C1CCN(c2ccc(N3C[C@H](CNC(=S)CO)OC3=O)cc2F)CC1 ? 102 to 105 °C

What melting point value was documented for this molecule, NC(Cc1cnc2ccccc2c1)C(=O)O (stereo not given) ? 241 to 243 °C

What melting point value was documented for this molecule, Cc1cc(=O)n(-c2cc(C(=O)OC(C)C)c(Cl)cc2F)c(=O)[nH]1 ? 134 to 136 °C

---

Let's look at some molecules and their measured melting point.

What melting point value was documented for this molecule, COCCOCCOC(=O)C1C=Nc2c(ccc3cccnc23)C1=O (stereo unspecified) ? 164 to 165 °C

---

Let's look at some compounds and their measured melting point.

Please review the entries below; each comes with its answer.
In [3]: df
Out[3]:
                                   compound  reported_result
0  Cc1[nH]c(C(=O)NCc2ccc(Cl)c(Cl)c2)c(C)c1-c1nc2ccc(C(=O)c3ccccc3)cc2[nH]1    141 to 143 °C
1                 COC1=CC(=O)C(=O)C=C1NCCCl    150 to 152 °C
2  CCCCCN1CCN(c2cccc3c2C[C@H](NC(C)=O)CC3)CC1    119 to 120 °C
3  COc1ccc(/C=C/c2nc3c([nH]2)c(=O)n(C)c(=O)n3C)c(OC)c1C         > 280 °C
4  O=C(Nc1ccc(C(=O)N2Cc3ccccc3Cc3ccccc32)cc1)c1cc(Cl)cc(Cl)c1Cl    225 to 230 °C

What melting point value was documented for this compound, CS(=O)c1ncc(Br)cn1 (stereo not given) ? 90 °C

What melting point value was documented for this compound, Cc1cc(-c2ccccc2)nn1CCN ? 131 to 132 °C

What melting point value was documented for this compound, CS(=O)c1csc(C(=O)O)c1 (stereo not given) ? 188 to 190 °C

What melting point value was documented for this compound, Cc1ccc(Sc2c(N)cc(C(=O)O)cc2SCc2ccccc2)cc1 ? 177 to 179 °C

What melting point value was documented for this compound, Cc1cc(-n2ccnc2)c2cccc(OCc3c(Cl)ccc(S(=O)(=O)N4CCC[C@H]4C(=O)N(C)CCCN(C)CCCO)c3Cl)c2n1 ? 92 °C
